I'd appreciate it if you could supply IC50 values for the items below.
Tested on: Target C CJ mRNA
Test: Gene panel canonical junction qPCR splicing assay, Target C
Type: cell-based
Conditions: Table 4, read-out: Target C IC50 (decrease in CJ mRNA levels)

{"columns": ["compound", "IC50"],
 "data": [
  ["CCN1CCC(c2ccc3nc(-c4cc5cn(C)nc5cc4O)ccc3n2)CC1 [Compound 138]", "1000 to 10000 nM"],
  ["Cn1cc2cc(-c3cc4ccc(N5CCC(NC(C)(C)C)C5)nc4cn3)c(O)cc2n1 (stereo not drawn) [Compound 218]", "> 10000 nM"],
  ["Cc1c(O)c(-c2ccc3nc(N4CC[C@@H](NC5CC5)C4)ccc3n2)cc2cn(C)nc12 (single isomer, unassigned) [Compound 259]", "< 100 nM"]
]}

Return reported IC50 values for all items listed beneath this line.
1. C[C@@H]1CC(c2ccc3nc(-c4cc5cn(C)nc5cc4O)ccc3n2)C[C@H](C)N1 (stereo partly drawn) [Compound 137]
2. Cc1nc2c(C)c(O)c(-c3ccc4nc(N5CCC(NC(C)(C)C)C5)ccc4n3)cc2o1 (single isomer, unassigned) [Compound 214]
3. Cn1cc2cc(-c3ccc4nc(N5CC(NC(C)(C)C)C5)ccc4n3)c(O)cc2n1 [Compound 165]
4. Cc1nc2c(C)c(O)c(-c3ccc4nc(N5CC[C@@H](NC(C)(C)C)C5)ccc4n3)cc2o1 (single isomer, unassigned) [Compound 215]
5. Cn1cc2cc(-c3ccc4nc(N5CC[C@H](NC6COC6)C5)ccc4n3)c(O)cc2n1 (stereo in doubt) [Compound 189]
6. Cc1c(O)c(-c2ccc3nc(N4CC[C@H](NC5CC5)C4)ccc3n2)cc2cn(C)nc12 (single isomer, unassigned) [Compound 260]

Given back:
1. 1000 to 10000 nM
2. < 100 nM
3. 1000 to 10000 nM
4. < 100 nM
5. 1000 to 10000 nM
6. < 100 nM
